# credit: patent EP1143970B1

# System: human MX-1 mammary tumor
# PROCEDURE SUMMARY: In vivo antitumor activity against i.c.-implanted human MX-1 mammary tumor xenograft
# Set-up: species or system mouse
# CONDITION: I.C.-implanted MX-1; optimal doses (LD10 or less), schedule QD1-5, I.P.; based on dying mice only
Marks after values point to notes of the source that are not given here.
RESULT TYPE: Median % ILS

Some solved cases for reference:
> print(dat)
                           structure.smiles   result.type  recorded.measurement
1          COc1nc(C(Cl)(Cl)Cl)c(Cl)c(O)c1Cl  Median % ILS                   60%
2  COCC(=O)Oc1c(Cl)c(OC)nc(C(Cl)(Cl)Cl)c1Cl  Median % ILS               126^a %
3  CCCCCCCC(=O)Oc1c(Cl)c(OC)nc(C(Cl)(Cl)Cl)c1Cl  Median % ILS               121^b %

Sample COc1nc(C(Cl)(Cl)Cl)c(Cl)c(OC(=O)c2cccs2)c1Cl , system: human MX-1 mammary tumor. Its Median % ILS is 100^d %

Record COc1nc(C(Cl)(Cl)Cl)c(Cl)c(OC(=O)c2ccco2)c1Cl ; system human MX-1 mammary tumor; Median % ILS = 108^c %

Note to self: Median % ILS of COc1nc(C(Cl)(Cl)Cl)c(Cl)c(OC)c1Cl with human MX-1 mammary tumor was 88%
